Each recorded value in this set is attributed to patent US20250179061A1.

Tested on: HT-29 cells
procedure_text: HT-29 necroptosis cell viability assay (TNF-α/SMAC mimetic/zVAD-FMK, CellTiter-Glo)
Assay type: cell-based
particulars: Homo sapiens, HT-29, HT-29 necroptosis cell viability, IC50 class symbols; read-out: Activity
pIC50: −log10 of the molar value.
Attribute: pIC50

{"columns": ["compound", "assayed_target", "pIC50"],
 "data": [
  ["Nc1ccccc1Oc1ccc(-n2ncn(Cc3c(F)cccc3F)c2=O)cc1 [Example 439]", "HT-29 cells", "> 7.00"],
  ["CCOC(=O)c1noc(Oc2ccc(-n3ncn(Cc4c(F)cccc4F)c3=O)cc2F)c1C [Example 477]", "HT-29 cells", "6.00 to 7.00"],
  ["CC1(C)CC(=O)N(c2cc(Oc3ccc(-n4ncn(Cc5c(F)cccc5F)c4=O)cc3)ccn2)C1 [Example 254]", "HT-29 cells", "6.00 to 7.00"],
  ["CC(C)Nc1cc(Oc2ccc(-n3ncn(Cc4c(F)cccc4F)c3=O)cc2)ccn1 [Example 345]", "HT-29 cells", "6.00 to 7.00"],
  ["CC1(CN)CN(c2cc(Oc3ccc(-n4ncn(Cc5c(F)cccc5F)c4=O)cc3F)c(F)cn2)C1 [Example 399]", "HT-29 cells", "6.00 to 7.00"],
  ["O=c1n(Cc2c(F)cccc2F)cnn1-c1ccc(Oc2cc(N3CC4(CNC4)C3)ncc2F)c(F)c1 [Example 418]", "HT-29 cells", "> 7.00"],
  ["CC1(C#N)CN(c2cc(Oc3ccc(-n4nc5n(c4=O)C(c4ccccc4)CC5)cc3F)c(F)cn2)C1 (stereo not shown) [Example 292]", "HT-29 cells", "> 7.00"],
  ["C[C@H]1C[C@@H](C#N)CN1c1cc(Oc2ccc(-n3ncn(Cc4c(F)cccc4F)c3=O)cc2)ccn1 [Example 282]", "HT-29 cells", "> 7.00"],
  ["CC1(C#N)CN(c2cc(Oc3ccc(-n4ncn(Cc5c(F)cccc5F)c4=O)cc3F)c(Cl)cn2)C1 [Example 257]", "HT-29 cells", "> 7.00"],
  ["CC(C)(C)CNc1cc(Oc2ccc(-n3ncn(Cc4c(F)cccc4F)c3=O)cc2)ccn1 [Example 386]", "HT-29 cells", "> 7.00"]
]}

Bench note: what pIC50 did CCOC1CN(c2nccc(Oc3ccc(-n4ncn(Cc5c(F)cccc5F)c4=O)cc3)c2Cl)C1 [Example 261] show?
6.00 to 7.00

Queued: CC(C)(C)OC1CN(c2nccc(Oc3ccc(-n4ncn(Cc5c(F)cccc5F)c4=O)cc3)c2F)C1 [Example 303]
> 7.00

And what about the compound CCOC1CN(c2nccc(Cl)c2Oc2ccc(-n3nc(C)n(Cc4ccccc4)c3=O)cc2)C1 [Example 305] ?
6.00 to 7.00

###

System: HT-29 cells
procedure_text: HT-29 necroptosis cell viability assay (TNF-α/SMAC mimetic/zVAD-FMK, CellTiter-Glo)
Assay type: cell-based
particulars: Homo sapiens, HT-29, HT-29 necroptosis cell viability, IC50 class symbols; read-out: Activity
Quick reference: IC50 of the listed items.

{"columns": ["compound", "IC50"],
 "data": [
  ["Cc1cnc(N2CCC(C)(C#N)C2)cc1Oc1ccc(-n2ncn(Cc3c(F)cccc3F)c2=O)cc1Cl (stereo not shown)", "< 100 nM"],
  ["O=c1n(Cc2c(F)cccc2F)cnn1-c1ccc(Oc2ccnc(NC(C3CC3)C(F)(F)F)c2F)cc1 (stereo not shown)", "1000 to 10000 nM"],
  ["O=c1n(Cc2c(F)cccc2F)cnn1-c1ccc(Oc2c(Cl)cccc2[N+](=O)[O-])cc1", "< 100 nM"]
]}

# input for lookup
Data request, read-out IC50, for Cc1nc(N2CC3(CCN3)C2)sc1Oc1ccc(-n2ncn(Cc3c(F)cccc3F)c2=O)cc1
< 100 nM

###

Tested on: HT-29 cells
procedure_text: HT-29 necroptosis cell viability assay (TNF-α/SMAC mimetic/zVAD-FMK, CellTiter-Glo)
Assay type: cell-based
particulars: Homo sapiens, HT-29, HT-29 necroptosis cell viability, IC50 class symbols; read-out: Activity
Measured IC50 of individual entries

{"columns": ["compound", "assayed_target", "IC50"],
 "data": [
  ["COC1(C#N)CN(c2ccnc(Cl)c2Oc2ccc(-n3ncn(Cc4c(F)cccc4F)c3=O)cc2)C1 [Example 359]", "HT-29 cells", "100 to 1000 nM"]
]}

// lookup IC50 | system=HT-29 cells | key= Cc1cc(-n2ncn(Cc3c(F)cccc3F)c2=O)ccc1Oc1cc(NC23CC(C#N)(C2)C3)ncc1F [Example 308]
100 to 1000 nM

Next up: Cc1nc(N2CC(OC(C)(C)C)C2)sc1Oc1ccc(-n2ncn(Cc3c(F)cccc3F)c2=O)cc1 [Example 456]
< 100 nM

###

Test system: HT-29 cells
procedure_text: HT-29 necroptosis cell viability assay (TNF-α/SMAC mimetic/zVAD-FMK, CellTiter-Glo)
Type: cell-based
particulars: Homo sapiens, HT-29, HT-29 necroptosis cell viability, IC50 class symbols; read-out: Activity
pIC50: −log10 of the molar value.
observed_property: pIC50

Some molecules with recorded pIC50:
{"columns": ["chemical_smiles", "assayed_target", "pIC50"],
 "data": [
  ["CCOC1CN(c2cc(Oc3ccc(-n4ncn(Cc5c(F)cccc5F)c4=O)cc3)c(C)cn2)C1", "HT-29 cells", "> 7.00"],
  ["C[C@H]1[C@@H](O)CN1c1cc(Oc2ncc(-n3ncn(Cc4c(F)cccc4F)c3=O)cc2F)ccn1", "HT-29 cells", "> 7.00"],
  ["Cc1nc(C(N)=O)sc1Oc1ccc(-n2nc3n(c2=O)[C@H](c2ccccc2)CO3)cc1F", "HT-29 cells", "> 7.00"],
  ["CCOC1CN(c2cc(Oc3ccc(-n4ncn(Cc5c(F)cccc5F)c4=O)cc3F)c(F)cn2)C1", "HT-29 cells", "> 7.00"],
  ["NC12CC(Nc3cc(Oc4ccc(-n5ncn(Cc6c(F)cccc6F)c5=O)cc4)ccn3)(C1)C2", "HT-29 cells", "6.00 to 7.00"]
]}

May I ask what pIC50 has been recorded for CC1(N)CN(c2nccc(Oc3ccc(-n4ncn(Cc5c(F)cccc5F)c4=O)cc3)c2F)C1 ?
> 7.00

Moving on to the next molecule: O=c1n(-c2ccc(Oc3ccccc3[N+](=O)[O-])cc2)nc(Cl)n1Cc1ccccc1
6.00 to 7.00

// query: O=c1n(Cc2c(F)cccc2F)cnn1-c1ccc(Oc2ccnc(N3CC4(CCCOC4)C3)c2)cc1
> 7.00

###

System: HT-29 cells
procedure_text: HT-29 necroptosis cell viability assay (TNF-α/SMAC mimetic/zVAD-FMK, CellTiter-Glo)
Assay type: cell-based
particulars: Homo sapiens, HT-29, HT-29 necroptosis cell viability, IC50 class symbols; read-out: Activity
observed_property: IC50

Please review the following examples before continuing.
{"columns": ["compound", "IC50"],
 "data": [
  ["Cc1c(Oc2ccc(-n3ncn(Cc4c(F)cccc4F)c3=O)cc2F)ccnc1N1CC(C)(C#N)C1", "< 0.1 µM"],
  ["Cc1cnc(Cl)cc1Oc1ccc(-n2ncn(Cc3c(F)cccc3F)c2=O)cc1Cl", "< 0.1 µM"],
  ["Cc1nc(N2CC(N)(CF)C2)sc1Oc1ccc(-n2ncn(Cc3c(F)cccc3F)c2=O)cc1F", "< 0.1 µM"],
  ["O=c1n(Cc2c(F)cccc2F)cnn1-c1ccc(Oc2ccnc(NCC3CCO3)c2)cc1 (stereo not shown)", "0.1 to 1 µM"],
  ["CC1(C#N)CN(c2cc(Oc3ccc(-n4ncn(Cc5c(F)cccc5F)c4=O)cc3F)c(F)cn2)C1", "< 0.1 µM"]
]}

GET /values?readout=IC50&item= Cc1cnc(N2CC(C)(N)C2)cc1Oc1ccc(-n2ncn(Cc3c(F)cccc3F)c2=O)cc1F
< 0.1 µM

Same lookup for Nc1cc(Oc2ccc(-n3ncn(Cc4c(F)cccc4F)c3=O)cc2F)c(F)cn1 , please.
0.1 to 1 µM

Also COC1(C#N)CN(c2cc(Oc3ccc(-n4ncn(Cc5c(F)cccc5F)c4=O)cc3)c(C)cn2)C1 ?
< 0.1 µM

Queued: C[C@H](Nc1cc(Oc2ccc(-n3ncn(Cc4c(F)cccc4F)c3=O)cc2)ccn1)C1CCC1
0.1 to 1 µM

Record: Cc1nc(NC2=NC(C)(C)CO2)sc1Oc1ccc(-n2ncn(Cc3c(F)cccc3F)c2=O)cc1Cl
< 0.1 µM

###

Test system: HT-29 cells
procedure_text: HT-29 necroptosis cell viability assay (TNF-α/SMAC mimetic/zVAD-FMK, CellTiter-Glo)
Format: cell-based
particulars: Homo sapiens, HT-29, HT-29 necroptosis cell viability, IC50 class symbols; read-out: Activity
Counter-ions that a name gives are not always drawn.
Measured IC50 by item

Example results:
{"columns": ["molecule", "assayed_target", "IC50"],
 "data": [
  ["Cc1nc(C(C)(C)O)sc1Oc1ncc(-n2ncn(Cc3c(F)cccc3F)c2=O)cc1Cl", "HT-29 cells", "< 100 nM"],
  ["O=c1n(Cc2c(F)cccc2F)cnn1-c1ccc(Oc2ccnc(N3CCC34COC4)c2)cc1", "HT-29 cells", "100 to 1000 nM"],
  ["Cc1nc(C(C)(C)O)sc1Oc1ccc(-n2nc3n(c2=O)C(c2ccccc2)CC3)cc1F (stereo not shown)", "HT-29 cells", "< 100 nM"],
  ["Cc1nc(C(C)(C)O)sc1Oc1ccc(-n2ncn(Cc3c(F)cccc3F)c2=O)cc1", "HT-29 cells", "< 100 nM"],
  ["N#Cc1ccc(Oc2ccc(-n3ncn(Cc4c(F)cccc4F)c3=O)cc2)cc1", "HT-29 cells", "100 to 1000 nM"],
  ["N#CC12CC(Nc3nccc(Oc4ccc(-n5ncn(Cc6c(F)cccc6F)c5=O)cc4)c3Cl)(C1)C2", "HT-29 cells", "< 100 nM"],
  ["C[C@H]1CCCN1c1cc(Oc2ccc(-n3ncn(Cc4c(F)cccc4F)c3=O)cc2F)c(F)cn1", "HT-29 cells", "< 100 nM"],
  ["N#CC1CC(Nc2cc(Oc3ccc(-n4ncn(Cc5c(F)cccc5F)c4=O)cc3)ccn2)C1 (stereo not shown)", "HT-29 cells", "100 to 1000 nM"]
]}

Report IC50 for Cc1nc(C(C)(C)O)sc1Oc1ccc(-n2ncn(Cc3ccccc3F)c2=O)cc1F please.
< 100 nM

How about C[C@H]1C[C@@H](N)CN1c1cc(Oc2ccc(-n3ncn(Cc4c(F)cccc4F)c3=O)cc2F)ccn1 ?
< 100 nM

Next entry: O=c1n(Cc2c(F)cccc2F)cnn1-c1ccc(Oc2ccnc(N3CCC4(CCOC4)C3)c2)cc1 (stereo not shown)
< 100 nM

Same question, CC1(O)CN(c2cc(Oc3ccc(-n4ncn(Cc5c(F)cccc5F)c4=O)cc3)ccn2)C1 this time
< 100 nM

Another molecule to look at: O=c1n(Cc2c(F)cccc2F)cnn1-c1ccc(Oc2cc(N3CC4(CCN4)C3)ncc2Cl)c(F)c1 [Example 411, hydrochloride]
< 100 nM
